Reference for the values: paper PMC165446

target: methionine adenosyltransferase (MAT; S-adenosylmethionine synthetase) (Mycolicibacterium smegmatis, UniProt A0QWT3); test: HPLC assay of SAM formation, Dixon plots with varied ATP
Sequence (A0QWT3 whole entry): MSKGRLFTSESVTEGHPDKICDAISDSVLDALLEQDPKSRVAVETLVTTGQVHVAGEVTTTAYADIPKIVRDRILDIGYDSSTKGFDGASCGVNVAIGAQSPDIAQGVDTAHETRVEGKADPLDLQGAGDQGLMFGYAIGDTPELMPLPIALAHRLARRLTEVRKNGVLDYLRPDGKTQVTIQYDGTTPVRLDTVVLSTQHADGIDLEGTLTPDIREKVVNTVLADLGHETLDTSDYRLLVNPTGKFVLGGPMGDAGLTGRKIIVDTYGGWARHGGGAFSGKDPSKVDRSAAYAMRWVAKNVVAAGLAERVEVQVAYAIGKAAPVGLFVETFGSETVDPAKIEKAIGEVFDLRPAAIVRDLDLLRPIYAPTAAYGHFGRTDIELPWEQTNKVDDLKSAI
QUANTITY: Ki
For clarity, give the value followed by its unit.

### Prompt Look up Ki: Nc1nc2nn[nH]c2c(=O)[nH]1 [8-azaguanine]
### Response 4.7 mM

Okay, now this compound:
### Prompt Dear colleague, I am looking for the recorded Ki of the following compound: Cn1cnc([N+](=O)[O-])c1Sc1ncnc2nc[nH]c12 [azathioprine]
### Response 3.74 mM
